# TGI per entry
- Tested on: RPMI-8226 leukemia
- PROCEDURE_TEXT: NCI tumour cell line growth inhibition, 48 h

Known TGI results, listed for orientation:
1. CCc1cccc(C(C)C)c1NC(=O)C(=O)CC(=O)c1c(C)n([O-])c2ccccc2[n+]1=O | > 100 µM
2. COc1ccccc1/C=C/[N+](=O)[O-] | 3.78 µM
3. CC(C)C1(O)C(c2ccccc2)=C(c2ccccc2)C(c2ccccc2)=C1c1ccccc1 | 5.26 µM
4. Oc1cc(O)c(Oc2cccc(O)c2O)c(O)c1 | > 100 µM
5. CCO/C=C/C(C)C1(C(=O)OCC)CCCCC1=O (stereo unspecified) | > 100 µM

## Input // fetch RPMI-8226 leukemia TGI for `Cc1ccc(-c2cc(-c3ccco3)c(C#N)c(=O)[nH]2)cc1`
## Output > 100 µM

## Input And what about the compound CC(=O)O[C@@H]1C[C@@]23C[C@@]24CC[C@H](OC2OCC(O)C(O)C2O)C(C)(C)[C@@H]4CC=C3[C@]2(C)C[C@@H]3OC4(C[C@@H](C)[C@@H]3[C@@]12C)OC(O)[C@@]1(C)O[C@@H]41 (stereo partly specified) ?
## Output 47.1 µM

## Input And what about the compound `O=[N+]([O-])c1c(Br)cc(Br)c2c1Nc1c(ccc(Cl)c1Cl)S2` ?
## Output > 100 µM

## Input And what about the compound CCCNCCCC(NC(C)=O)C(=O)NCc1ccccc1 (stereo unspecified) ?
## Output > 100 µM

## Input And what about the compound Cc1nc2c3c(ncn2n1)Oc1c(c(-c2ccccc2)nn1-c1ccccc1)C3c1ccc(Cl)cc1 (stereo unspecified) ?
## Output > 100 µM

## Input And what about the compound `N=c1oc2ccc3ccccc3c2cc1C(N)=O` ?
## Output > 100 µM

---

- Test system: K-562 leukemia
- PROCEDURE_TEXT: NCI tumour cell line growth inhibition, 48 h
# TGI per entry

1) COC(=O)[C@H]1[C@@H](C(C)C)O[C@@H](C(C)C)O[C@H]1C(F)(F)F | > 100 µM

## Input Find the recorded TGI belonging to `FC(F)(F)c1cc(-c2nnc3n2N=C(N2CCCC2)CS3)cc(C(F)(F)F)c1` and report it.
## Output > 50 µM

## Input And what about the molecule `Cc1cccc2c1[nH]c1[nH]c(=O)[nH]c(=O)c12` ?
## Output > 100 µM

## Input And what about the molecule `Nc1cccc2c1C(=O)c1cccc(N)c1C2=O` ?
## Output > 100 µM

## Input And what about the molecule OC1c2ccccc2C2(O)C1C(c1ccccc1)C(c1ccccc1)C2(O)c1ccccc1 (stereo not given) ?
## Output 50 µM

---

- Tested on: SNB-19 CNS
- PROCEDURE_TEXT: NCI tumour cell line growth inhibition, 48 h
# TGI per entry

Known TGI results, listed for orientation:
1. COc1ccc(N(C)C(=O)N(C)c2ccc([N+](=O)[O-])cc2)cc1 | > 100 µM
2. Cc1nc2c3c(ncn2n1)Oc1c(c(-c2ccccc2)nn1-c1ccccc1)C3c1ccc(Cl)cc1 (centres undefined) | > 100 µM
3. O=C(c1ccc(Cl)cc1)c1ccc(OCCCCCCCCCCOc2ccc(C(=O)c3ccc(Cl)cc3)cc2)cc1 | > 100 µM
4. NC(=S)N/N=C\c1ccc(OCc2cccc(COc3ccc(/C=N/NC(N)=S)cc3)n2)cc1 | > 100 µM
5. Nc1cccc2c1C(=O)c1cccc(N)c1C2=O | > 100 µM

Please find the next molecule below.
## Input Find the recorded TGI belonging to COC(=O)C1CCC(=O)N1C(=O)Cc1ccc(OC)cc1 (centres undefined) and report it.
## Output > 100 µM
